# pEC50 per entry
target: T1, Proleukin® (aldesleukin) (human, UniProt P60568 21-153, limits assumed); experiment: ELISA, coated Proleukin, serially diluted supernatant
T1 construct: Variant of human wt IL-2 with C145S (C125S on mature IL-2); also called IL-2 (Proleukin®); human IL-2 (Proleukin)
T1 sequence (P60568 other isoform, or with tags, fused parts or gaps limits assumed): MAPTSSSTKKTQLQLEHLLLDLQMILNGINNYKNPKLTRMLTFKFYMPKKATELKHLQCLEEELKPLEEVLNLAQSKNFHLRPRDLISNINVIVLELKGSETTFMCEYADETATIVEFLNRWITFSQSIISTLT
pEC50: −log10 of the molar value.

binder	pEC50
Antibody No: 16 (antibody, human IgG1, kappa, N297A, V domains shown, VK WT; HEK293F supernatant) VH: EVQLVQSGAEVKKPGESLKISCKGSGYAFTNYLIEWVRQMPGKGLEWMGVINPGSGGTYYNEKFKGQVTISADKSISTAYLQWSSLKASDTAMYYCARWRGEGYYAYYDVWGQGTTVTVSS VL: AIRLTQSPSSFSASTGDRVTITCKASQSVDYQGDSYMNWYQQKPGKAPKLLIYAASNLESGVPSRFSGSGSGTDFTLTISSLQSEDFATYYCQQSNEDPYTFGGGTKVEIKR	9.42
Antibody No: 35 (antibody, human IgG1, kappa, N297A, V domains shown, VK M33L + A50S; HEK293F supernatant) VH: EVQLVQSGAEVKKPGESLKISCKGSGYAFSNYLIEWVRQMPGKGLEWMGVINPGSGGTYYNEKFKGQVTISADKSISTAYLQWSSLKASDTAMYYCARWRGEGYYAYYDVWGQGTTVTVSS VL: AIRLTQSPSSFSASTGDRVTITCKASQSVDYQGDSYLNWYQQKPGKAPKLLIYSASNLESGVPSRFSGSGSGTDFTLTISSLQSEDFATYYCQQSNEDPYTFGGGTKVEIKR	9.14
Antibody No: 13 (antibody, human IgG1, kappa, N297A, V domains shown, VH N58Y; VK A50S; also called 108925) VH: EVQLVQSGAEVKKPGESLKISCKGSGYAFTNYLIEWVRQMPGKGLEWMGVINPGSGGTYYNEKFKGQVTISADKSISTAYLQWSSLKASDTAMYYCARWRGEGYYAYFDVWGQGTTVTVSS VL: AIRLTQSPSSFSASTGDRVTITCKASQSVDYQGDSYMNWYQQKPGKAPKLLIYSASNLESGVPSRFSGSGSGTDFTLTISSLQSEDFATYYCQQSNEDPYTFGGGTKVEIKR	9.72
